- Assay: Stability of the five compounds in SD rat plasma (QC samples, UHPLC-ESI-MS/MS)
- Type: in vitro ADME
- Recorded Conditions: SD rat plasma, nominal 1000 ng/mL, 7 days at -80°C, n=5
Parameter Measured: stability, mean ± SD (measured concentration) (ng/mL)

[[record]]
compound = "CC1=C[C@H]2[C@@H](CC1)[C@H](C)CC[C@H]2[C@@H](C)C(=O)O [DHAA, Dihydroartemisinic acid]"
recorded_value = 1064

[[record]]
compound = "C=C(C(=O)O)[C@@H]1CC[C@@H](C)[C@@H]2CCC(C)=C[C@@H]21"
recorded_value = 919

[[record]]
compound = "C=C1CC[C@@H]2[C@H]3[C@@H](CC[C@H]2C)[C@@H](C)C(=O)O[C@H]13"
recorded_value = 920

[[record]]
compound = "C[C@@H]1CC[C@H]2[C@@H](C)C(=O)O[C@@H]3O[C@@]4(C)CC[C@@H]1[C@]32O4"
recorded_value = 1069


###

- Assay: in vivo
- Recorded Conditions: male, Sprague Dawley, rat, po, 352 mg/kg
Parameter Measured: log10(AUC(0-inf)) (log10 of the value in ng·h/mL)

[[record]]
compound = "CC1=C[C@H]2[C@@H](CC1)[C@H](C)CC[C@H]2[C@@H](C)C(=O)O [DHAA, Dihydroartemisinic acid]"
recorded_value = 4.47

[[record]]
compound = "C=C1CC[C@@H]2[C@H]3[C@@H](CC[C@H]2C)[C@@H](C)C(=O)O[C@H]13"
recorded_value = 3.14

[[record]]
compound = "C=C(C(=O)O)[C@@H]1CC[C@@H](C)[C@@H]2CCC(C)=C[C@@H]21"
recorded_value = 4.37

[[record]]
compound = "C[C@@H]1CC[C@H]2[C@@H](C)C(=O)O[C@@H]3O[C@@]4(C)CC[C@@H]1[C@]32OO4 [ART, Artemisinin, reference compound]"
recorded_value = 2.91

[[record]]
compound = "C[C@@H]1CC[C@H]2[C@@H](C)C(=O)O[C@@H]3O[C@@]4(C)CC[C@@H]1[C@]32O4"
recorded_value = 2.93


###

- Recorded Conditions: male, Sprague Dawley, rat, in vivo, po, 352 mg/kg
The following compounds are listed with their measured CL values.
Parameter Measured: CL (L/h)

[[record]]
compound = "C=C1CC[C@@H]2[C@H]3[C@@H](CC[C@H]2C)[C@@H](C)C(=O)O[C@H]13 [ARTI, Arteannuin I]"
recorded_value = 0.016

[[record]]
compound = "C[C@@H]1CC[C@H]2[C@@H](C)C(=O)O[C@@H]3O[C@@]4(C)CC[C@@H]1[C@]32O4 [DEART, Deoxyartemisinin]"
recorded_value = 0.024

[[record]]
compound = "C[C@@H]1CC[C@H]2[C@@H](C)C(=O)O[C@@H]3O[C@@]4(C)CC[C@@H]1[C@]32OO4 [ART, Artemisinin, reference compound]"
recorded_value = 0.032

[[record]]
compound = "C=C(C(=O)O)[C@@H]1CC[C@@H](C)[C@@H]2CCC(C)=C[C@@H]21 [AA, Artemisinic acid]"
recorded_value = 0.001

[[record]]
compound = "CC1=C[C@H]2[C@@H](CC1)[C@H](C)CC[C@H]2[C@@H](C)C(=O)O [DHAA, Dihydroartemisinic acid]"
recorded_value = 0.001

